Hi there, I'd appreciate the recorded IFN-α for every entry that follows.
# Test system: human PBMCs
# TEST DESCRIPTION: Human PBMC cytokine response assay (IFN-γ and IFN-α in cell-free medium by ELISA), with or without cPLGA
# Assay type: cell-based
# MEASUREMENT PARAMETERS: Example 59; 20 ug/ml; donor 273
Strand notation (5' to 3'): a small letter for the sugar, then the base; units joined by * are phosphorothioate-linked, units joined directly phosphodiester-linked; [ ] holds rarer units or linkages, { } end groups; capitals alone tell only the bases. d = 2'-deoxy (DNA)
One number for each entry, in pg/mL.

Worked cases, IFN-α given:
substance="5′-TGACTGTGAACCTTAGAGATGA-3′ (SEQ ID NO: 3) (dT*dG*dA*dC*dT*dG*dT*dG*dA*dA*dC*dC*dT*dT*dA*dG*dA*dG*dA*dT*dG*dA) [Compound P-7, negative control, reference compound]" observed_result=102
substance="(5′-TAGTCAT-3′-HEG)2-glycerol-HEG-5′-AACCTTC-3′ [Compound M-3, reference compound]" observed_result=102

Take each entry in turn and give its IFN-α.
1. (5′-TCGACGT-HEG)2-glycerol-HEG-5′-CCTACTGAACCTCTAAGT-3′ (SEQ ID NO: 158) (DNA, all phosphorothioate, methylation of C not given here; Two heptamer DNA arms joined by HEG spacers and glycerol branching to the chain) [Compound C-203]
2. (5′-TCGACGT-HEG)2-glycerol-HEG-5′-ACTTAGAGGTTCAGTAGG-3′ (SEQ ID NO: 157) (DNA, all phosphorothioate, methylation of C not given here; Two heptamer DNA arms joined by HEG spacers and glycerol branching to the chain) [Compound C-202]
3. (5′-TCGACGT-3′-HEG)2-glycerol-HEG-5′-TCGACGT-3′ [Compound C-101]
4. (5′-TCGACGT-HEG)2-glycerol-HEG-5′-TTGGCCAAGCTTGGCCAA (SEQ ID NO: 116) (DNA, all phosphorothioate, methylation of C not given here; Two heptamer DNA arms joined by HEG spacers and glycerol branching to the chain) [Compound C-178]

Completion:
[102, 339, 102, 3971]

----------
# System: human PBMCs
# TEST DESCRIPTION: Human PBMC cytokine response assay (IFN-γ and IFN-α in cell-free medium by ELISA), with or without cPLGA
# Type: cell-based
# MEASUREMENT PARAMETERS: Example 58; 4 ug/ml; donor 3
Strand notation (5' to 3'): a small letter for the sugar, then the base; units joined by * are phosphorothioate-linked, units joined directly phosphodiester-linked; [ ] holds rarer units or linkages, { } end groups; capitals alone tell only the bases. d = 2'-deoxy (DNA)
MEASURE: IFN-α (pg/mL)
Numbers only, in pg/mL.

Worked cases, IFN-α given:
substance="(5′-TCGAACGTTCGA-3′ (SEQ ID NO: 155)-HEG)3-trebler-HEG-5′-T-3′ (three copies HEG-trebler branched, HEG-T, chemistry not fully specified) [Compound C-175]" tested_system="human PBMCs" measure=IFN-α observed_result=906
substance="5′-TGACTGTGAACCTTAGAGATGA-3′ (SEQ ID NO: 3) (dT*dG*dA*dC*dT*dG*dT*dG*dA*dA*dC*dC*dT*dT*dA*dG*dA*dG*dA*dT*dG*dA) [Compound P-7, negative control, reference compound]" tested_system="human PBMCs" measure=IFN-α observed_result=52
substance="(5′-TCGACGT-3′-HEG)2-glycerol-HEG-5′-TCGACGT-3′ [Compound C-101]" tested_system="human PBMCs" measure=IFN-α observed_result=59

Take each entry in turn and give its IFN-α.
1. 5′-TCGAACGTTCGA-3′ (SEQ ID NO: 155) (listed as DNA, chemistry not fully specified) [Compound P-17, reference compound]
2. (5′-TAGTCAT-3′-HEG)2-glycerol-HEG-5′-AACCTTC-3′ [Compound M-3, reference compound]

Completion:
[531, 52]

Take each entry in turn and give its IFN-α.
1. (5′-TCGAACGTTCGA-3′ (SEQ ID NO: 155)-HEG)2-glycerol-HEG-5′-TCGAACGTTCGA-3′ (SEQ ID NO: 155) (three copies via HEG-glycerol branching, chemistry not fully specified) [Compound C-173]
2. (5′-TCGAACGTTCGA-3′ (SEQ ID NO: 155)-HEG)2-glycerol-HEG-3′-AGCTTGCAAGCT-5′ (SEQ ID NO: 155) (DNA, all phosphorothioate, methylation of C not given here; Three DNA copies joined by HEG spacers and glycerol branching, one copy inverted) [Compound C-174]

Completion:
2197
1016

----------
# System: human PBMCs
# TEST DESCRIPTION: Human PBMC cytokine response assay (IFN-γ and IFN-α in cell-free medium by ELISA), with or without cPLGA
# Format: cell-based
# MEASUREMENT PARAMETERS: Table 24; mean of donors 28234-28237
Strand notation (5' to 3'): a small letter for the sugar, then the base; units joined by * are phosphorothioate-linked, units joined directly phosphodiester-linked; [ ] holds rarer units or linkages, { } end groups; capitals alone tell only the bases. d = 2'-deoxy (DNA)
Hi there, I'd appreciate the recorded IFN-α mean for every entry that follows.
Give bare numbers, in pg/mL.

Take each entry in turn and give its IFN-α mean.
1. (5′-TCGTCGA-3′-C3)2-glycerol-C3-5′-TCGTCGA-3′ [Compound C-104]
2. 5′-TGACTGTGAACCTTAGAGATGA-3′ (SEQ ID NO: 3) (dT*dG*dA*dC*dT*dG*dT*dG*dA*dA*dC*dC*dT*dT*dA*dG*dA*dG*dA*dT*dG*dA) [Compound P-7, negative control, reference compound]
3. 5′-TCGTCGA-3′-C3-5′-TCGTCGA-3′-C3-5′-TCGTCGA-3′ all phosphorothioate linkages [Compound C-33]
4. (5′-TCGACGT-3′-HEG)2-glycerol-HEG-5′-TCGACGT-3′ [Compound C-101]
5. 5′-TCCA-3′-C3-5′-TGACGTT-3′-C3-5′-CCTGATGCT-3′ [Compound C-88]
6. (5′-TCGTCGA-3′-HEG)2-glycerol-HEG-5′-TCGTCGA-3′ [Compound C-94]

Completion:
19
28
35
2546
109
1078

Prompt: human PBMCs / IFN-α mean / (5′-TCGTCGA-3′-TEG)2-glycerol-TEG-5′-TCGTCGA-3′ [Compound C-103] : value?
Completion: 94

----------
# Test system: CD19+ B cells
# TEST DESCRIPTION: Human B cell proliferation assay (3H-thymidine incorporation)
# MEASUREMENT PARAMETERS: B cells; Donor 147; 2 μg/ml; Experiment A
Strand notation (5' to 3'): a small letter for the sugar, then the base; units joined by * are phosphorothioate-linked, units joined directly phosphodiester-linked; [ ] holds rarer units or linkages, { } end groups; capitals alone tell only the bases. d = 2'-deoxy (DNA)
MEASURE: log10 cpm2 (log10 of the value in cpm)
All values: log10 cpm2 [cpm].

substance="5′-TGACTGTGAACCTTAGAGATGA-3′ (SEQ ID NO: 3) (dT*dG*dA*dC*dT*dG*dT*dG*dA*dA*dC*dC*dT*dT*dA*dG*dA*dG*dA*dT*dG*dA) [Compound P-7, reference compound]" observed_result=3.61

Take each entry in turn and give its log10 cpm2.
1. 5′-TCGTCGA-3′ [Compound P-1, reference compound]
2. 5′-TCGTCGA-3′-HEG-5′-ACGTTCG-3′-HEG-5′-AGATGAT-3′ [Compound C-8]
3. 5′-TCGTCGA-3′- C3-5′-ACGTTCG-3′-C3-5′-AGATGAT-3′ [Compound C-9]
4. (5′-TCGTCGA-3′)2-glycerol-5′-TCGTCGA-3′ [Compound C-28]
5. 5′-TCGTCGA-3′-HEG-5′-TCGTCGA-3′-HEG-5′-TCGTCGA-3′ [Compound C-21]
6. 5′-TGCTGC-3′-HEG-5′-AGCTTGC-3′-HEG-5′-AGATGAT-3′ [Compound M-1, reference compound]

Completion:
[2.66, 4.35, 4.69, 4.71, 4.28, 3.22]

----------
Hi there, I'd appreciate the recorded IFN-γ (pg/ml) 28066 for every entry that follows.
# Tested on: human PBMCs
# TEST DESCRIPTION: Human PBMC cytokine response assay (IFN-γ and IFN-α in cell-free medium by ELISA), with or without cPLGA
# Type: cell-based
# MEASUREMENT PARAMETERS: donor 28066; 20 ug/ml, 24 h; + PLGA = premixed with 100 μg/ml cPLGA
Strand notation (5' to 3'): a small letter for the sugar, then the base; units joined by * are phosphorothioate-linked, units joined directly phosphodiester-linked; [ ] holds rarer units or linkages, { } end groups; capitals alone tell only the bases. d = 2'-deoxy (DNA)
One number for each entry, in pg/mL.

Worked cases, IFN-γ (pg/ml) 28066 given:
substance="5′-TCGTCG-3′-abasic-5′-ACGTTCG-3′-abasic-5′-AGATGAT-3′ [Compound C-20]" output_unit=pg/mL observed_result=13
substance="(5′-TCGTCGA-3′)2-glycerol-5′-TCGTCGA-3′ [Compound C-28]" output_unit=pg/mL observed_result=5
substance="(5′-TCGTCGA-3′)2-glycerol-5′-AACGTTC-3′ [Compound C-27]" output_unit=pg/mL observed_result=3
substance="5′-AGATGAT-3′ [Compound P-4, reference compound]" output_unit=pg/mL observed_result=1
substance="5′-ACGTTCG-3′-HEG-5′-ACGTTCG-3′-HEG-5′-AGATGAT-3′ [Compound C-24]" output_unit=pg/mL observed_result=2
substance="5′-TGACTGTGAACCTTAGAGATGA-3′ (SEQ ID NO: 3) (dT*dG*dA*dC*dT*dG*dT*dG*dA*dA*dC*dC*dT*dT*dA*dG*dA*dG*dA*dT*dG*dA) [Compound P-7, negative control, reference compound]" output_unit=pg/mL observed_result=1

// next entry
Prompt: Please report the recorded IFN-γ (pg/ml) 28066 for 5′-TCGTCG-3′-C4-5′-ACGTTCG-3′-C4-5′-AGATGAT-3′ [Compound C-17] .
Completion: 6
